All values here come from patent US20110105389A1.

Consider the following compounds; for each one, report its t1/2.
Test: Pharmacokinetic analysis (intravenous and oral), Method B9
Assay type: in vivo
Details: Table 10b; 2 mg/mL intravenous typically employed
Use h as the unit, but write only the number.

q: Look up t1/2 for this compound: CCC1CCc2ccc(F)cc2OCCNC(C2(C)CC2)C(=O)N(C)C(C(C)O)C(=O)NC(Cc2c[nH]c3ccccc23)C(=O)N1 (stereo not drawn)
a: 2.45

q: Look up t1/2 for this compound: CC(C)C1NCCOc2cc(F)ccc2C#CCNC(=O)C(Cc2c[nH]c3ccccc23)NC(=O)C(C(C)O)N(C)C1=O (stereo not drawn)
a: 0.683

q: Look up t1/2 for this compound: CCC1CCc2ccc(F)cc2OC(C)CNC(C2(C)CC2)C(=O)N(C)C(C(C)O)C(=O)NC(Cc2ccccc2)C(=O)N1 (stereo not drawn)
a: 2.77

q: Look up t1/2 for this compound: CCC1CCc2ccc(F)cc2OCCNC(C(C)C)C(=O)N(C)C(C(C)O)C(=O)NC(Cc2c[nH]c3ccc(F)cc23)C(=O)N1 (stereo not drawn)
a: 1.72

q: Look up t1/2 for this compound: CC(O)[C@H]1C(=O)N[C@H](Cc2c[nH]c3ccccc23)C(=O)N[C@H](C)C#Cc2ccc(F)cc2O[C@H](C)CN[C@@H](C2(C)CC2)C(=O)N1C (stereo partly drawn)
a: 1.17

q: Look up t1/2 for this compound: CC[C@@H]1CCc2ccc(F)cc2OCCN[C@@H](C(C)C)C(=O)N(C)[C@@H](C(C)O)C(=O)N[C@H](Cc2ccc(O)cc2)C(=O)N1 (stereo partly drawn)
a: 0.767

q: Look up t1/2 for this compound: CC[C@@H]1C#Cc2ccccc2O[C@H](C)CN[C@@H](C2(C)CC2)C(=O)N(C)[C@@H](C(C)O)C(=O)N[C@H](Cc2c[nH]c3ccccc23)C(=O)N1 (stereo partly drawn)
a: 2.7

q: Look up t1/2 for this compound: CC(O)[C@H]1C(=O)N[C@H](Cc2c[nH]c3ccccc23)C(=O)N[C@H](C)CCc2ccc(F)cc2O[C@H](C)CN[C@@H](C2(C)CC2)C(=O)N1C (stereo partly drawn)
a: 1.55

q: Look up t1/2 for this compound: CC[C@@H]1C#Cc2ccc(F)cc2OCCN[C@@H](C(C)C)C(=O)N(C)[C@@H](C(C)O)C(=O)N[C@H](Cc2ccccc2)C(=O)N1 (stereo partly drawn)
a: 1.98

q: Look up t1/2 for this compound: CC[C@@H]1C#Cc2ccc(F)cc2OCCN[C@@H](C(C)C)C(=O)N(C)[C@@H](C(C)O)C(=O)N[C@H](Cc2c[nH]c3ccccc23)C(=O)N1 (stereo partly drawn)
a: 2.05

q: Look up t1/2 for this compound: CC[C@@H]1CCc2ccc(F)cc2OCCN[C@@H](C2(C)CC2)C(=O)N(C)[C@@H](C(C)O)C(=O)N[C@H](Cc2ccccc2)C(=O)N1 (stereo partly drawn)
a: 1.78

q: Look up t1/2 for this compound: CC[C@@H]1C#Cc2ccccc2OCCN[C@@H](C(C)C)C(=O)N(C)[C@@H](C(C)O)C(=O)N[C@H](Cc2c[nH]c3ccccc23)C(=O)N1 (stereo partly drawn)
a: 1.77

q: Look up t1/2 for this compound: CC(O)[C@H]1C(=O)N[C@H](Cc2c[nH]c3ccccc23)C(=O)N[C@H](C)C#Cc2ccccc2OCCN[C@@H](C2(C)CC2)C(=O)N1C (stereo partly drawn)
a: 1.73

q: Look up t1/2 for this compound: CC[C@@H]1C#Cc2c(F)cccc2OCCN[C@@H](C(C)C)C(=O)N(C)[C@@H](C(C)O)C(=O)N[C@H](Cc2c[nH]c3ccccc23)C(=O)N1 (stereo partly drawn)
a: 2.85

q: Look up t1/2 for this compound: CC[C@@H]1C#Cc2ccc(F)cc2O[C@H](C)CN[C@@H](C2(C)CC2)C(=O)N(C)[C@@H](C(C)O)C(=O)N[C@H](Cc2c[nH]c3ccccc23)C(=O)N1 (stereo partly drawn)
a: 2.17
